All values here come from ChEMBL document CHEMBL3425444.

experiment: Cytotoxicity against human MT4 cells assessed as reduction of cell viability after 4 days by MTT assay; type: cell-based
assay endpoint: CC50 at 96 h

                        structure_as_smiles  assay_endpoint  value_observed
0  Cc1cc(C#N)cc(C)c1Oc1ccnc(NC2CCN(CC(=O)Nc3cccc([N+](=O)[O-])c3)CC2)n1    CC50 at 96 h      ≥ 0.379 µM
1  CC(C)Nc1cccnc1N1CCN(C(=O)c2cc3cc(NS(C)(=O)=O)ccc3[nH]2)CC1    CC50 at 96 h       > 43.8 µM
2  Cc1cc(C#N)cc(C)c1Oc1nc(Nc2ccc(C#N)cc2)nc(N)c1Br    CC50 at 96 h       > 4.59 µM

---

assay: Retention time of the compound by HPLC analysis; type: physicochemical
Retention_time values by entry
assay endpoint: Retention_time (min)

>>> df
                        structure_as_smiles  uom  value_observed
0  Cc1cc(C#N)cc(C)c1Oc1ccnc(NC2CCN(CC(=O)Nc3c(Cl)cc(Cl)cc3Cl)CC2)n1  min           11.85
1  Cc1cc(C#N)cc(C)c1Oc1ccnc(NC2CCN(CC(=O)Nc3ccc(O)cc3)CC2)n1  min           10.25
2  Cc1ccc(NC(=O)CN2CCC(Nc3nccc(Oc4c(C)cc(C#N)cc4C)n3)CC2)cc1C  min           12.21
3  COc1ccc(NC(=O)CN2CCC(Nc3nccc(Oc4c(C)cc(C#N)cc4C)n3)CC2)cc1  min           10.82
4  Cc1cc(C#N)cc(C)c1Oc1ccnc(NC2CCN(CC(=O)Nc3ccc(Cl)cc3Cl)CC2)n1  min           13.21
5  Cc1cc(C#N)cc(C)c1Oc1ccnc(NC2CCN(CC(=O)Nc3ccc(Br)cc3)CC2)n1  min           11.85
6  Cc1cc(C#N)cc(C)c1Oc1ccnc(NC2CCN(CC(=O)Nc3cccc(Cl)c3)CC2)n1  min           11.95

---

assay: Selectivity index, ratio of CC50 for human MT4 cells to EC50 for HIV1 3B infected in human MT4 cells; format: toxicity, cell-based; settings: HIV1 3B infected MT4 cells, read-out: Selectivity Index
selectivity ratio values by entry
assay endpoint: selectivity ratio

>>> print(df.to_string())
                                    compound     assay_endpoint  relation  value_observed
 0  Cc1cc(S(N)(=O)=O)ccc1NC(=O)CN1CCC(Nc2nccc(Oc3c(C)cc(C#N)cc3C)n2)CC1  selectivity ratio         =             309
 1  CC(C)Nc1cccnc1N1CCN(C(=O)c2cc3cc(NS(C)(=O)=O)ccc3[nH]2)CC1 [DELAVIRDINE]  selectivity ratio         >              67
 2  Cc1cc(C#N)cc(C)c1Oc1ccnc(NC2CCN(CC(=O)Nc3ccc(Cl)cc3)CC2)n1  selectivity ratio         =             164
 3  Cc1cc(C#N)cc(C)c1Oc1ccnc(NC2CCN(CC(=O)Nc3cc(Cl)cc(Cl)c3)CC2)n1  selectivity ratio         =              46
 4  Cc1cc(C#N)cc(C)c1Oc1ccnc(NC2CCN(CC(=O)Nc3ccc(C#N)cc3)CC2)n1  selectivity ratio         =             208
 5  Cc1cc(C#N)cc(C)c1Oc1ccnc(NC2CCN(CC(=O)Nc3ccc(Cl)cc3Cl)CC2)n1  selectivity ratio         =              15
 6  Cc1cc(C#N)cc(C)c1Oc1nc(Nc2ccc(C#N)cc2)nc(N)c1Br [ETRAVIRINE]  selectivity ratio         >            1120
 7  Cc1cc(C#N)cc(C)c1Oc1ccnc(NC2CCN(CC(=O)Nc3ccccc3)CC2)n1  selectivity ratio         =             551
 8  COc1ccc(NC(=O)CN2CCC(Nc3nccc(Oc4c(C)cc(C#N)cc4C)n3)CC2)cc1  selectivity ratio         =             446
 9  Cc1cc(C#N)cc(C)c1Oc1ccnc(NC2CCN(CC(=O)Nc3ccccc3Cl)CC2)n1  selectivity ratio         =              44
10  Cc1ccc(NC(=O)CN2CCC(Nc3nccc(Oc4c(C)cc(C#N)cc4C)n3)CC2)cc1  selectivity ratio         =             367
11  Cc1ccc(NC(=O)CN2CCC(Nc3nccc(Oc4c(C)cc(C#N)cc4C)n3)CC2)cc1C  selectivity ratio         =             177
12  Cc1cc(C#N)cc(C)c1Oc1ccnc(NC2CCN(CC(=O)Nc3cccc(Cl)c3)CC2)n1  selectivity ratio         =             214
13  Cc1cc(C#N)cc(C)c1Oc1ccnc(NC2CCN(CC(=O)Nc3cccc([N+](=O)[O-])c3)CC2)n1  selectivity ratio         ≥              49
14  Cc1cc(C#N)cc(C)c1Oc1ccnc(NC2CCN(CC(=O)Nc3ccc(O)cc3)CC2)n1  selectivity ratio         =            1040
15  Cc1cc(C#N)cc(C)c1Oc1ccnc(NC2CCN(CC(=O)Nc3ccc(Cl)c(Cl)c3)CC2)n1  selectivity ratio         =              61
16  Cc1cc(C#N)cc(C)c1Oc1ccnc(NC2CCN(CC(=O)Nc3ccccc3F)CC2)n1  selectivity ratio         =           16900
17  Cc1cc(C#N)cc(C)c1Oc1ccnc(NC2CCN(CC(=O)Nc3cccc(F)c3)CC2)n1  selectivity ratio         =             231
18  Cc1cc(C#N)cc(C)c1Oc1ccnc(NC2CCN(CC(=O)Nc3ccc(C#N)cc3F)CC2)n1  selectivity ratio         =             245
19  Cc1cc(C#N)cc(C)c1Oc1ccnc(NC2CCN(CC(=O)Nc3c(Cl)cc(Cl)cc3Cl)CC2)n1  selectivity ratio         ≤               5
20  Cc1cc(C#N)cc(C)c1Oc1ccnc(NC2CCN(CC(=O)Nc3ccc(F)cc3)CC2)n1  selectivity ratio         =             431
21  Cc1cc(C#N)cc(C)c1Oc1ccnc(NC2CCN(CC(=O)Nc3ccc([N+](=O)[O-])cc3)CC2)n1  selectivity ratio         =              89
22  Cc1ccccc1NC(=O)CN1CCC(Nc2nccc(Oc3c(C)cc(C#N)cc3C)n2)CC1  selectivity ratio         =              20
23  Cc1cc(C#N)cc(C)c1Oc1ccnc(NC2CCN(CC(=O)Nc3ccc(S(N)(=O)=O)cc3)CC2)n1  selectivity ratio         =             845
24  Cc1cc(C#N)cc(C)c1Oc1ccnc(NC2CCN(CC(=O)Nc3ccc(Br)cc3)CC2)n1  selectivity ratio         =             238
